Ref: patent US8188059B2

Tested on: rat DGAT2 mRNA
Experiment: Dose-dependent inhibition of DGAT2 in A10 cells, 6.25-200 nM (Example 22, Table 82)
Type: cell-based
Settings: 100.0 nM
Strand notation (5' to 3'): a small letter for the sugar, then the base; units joined by * are phosphorothioate-linked, units joined directly phosphodiester-linked; [ ] holds rarer units or linkages, { } end groups; capitals alone tell only the bases. e = 2'-O-(2-methoxyethyl) (MOE); [5mC] = 5-methylcytosine; d = 2'-deoxy (DNA)
Measurement type: percent inhibition of DGAT2
# answer = number (no unit)

Form: Entry = 372568 (antisense eG*eA*d[5mC]*dA*d[5mC]*dT*dG*d[5mC]*dA*dG*dG*d[5mC]*e[5mC]*eA) [compound 372568] | System = rat DGAT2 mRNA | percent inhibition of DGAT2 = ____
72

Item: 372562 (antisense eG*eT*d[5mC]*dT*dT*dG*dG*dA*dG*dG*dG*d[5mC]*e[5mC]*eG) [compound 372562]
48

Item: 372602 (antisense e[5mC]*e[5mC]*dA*dG*dG*d[5mC]*dA*dT*dG*dG*dA*dG*e[5mC]*eT) [compound 372602]
47

Item: 372618 (antisense eG*eT*dG*dG*dT*dA*d[5mC]*dA*dG*dG*dT*d[5mC]*eG*eA) [compound 372618]
65

Item: 372586 (antisense eG*eT*dT*d[5mC]*d[5mC]*dT*dG*dG*dT*dG*dG*dT*e[5mC]*eA) [compound 372586]
45
